- testTarget: human ERK-2 (Mitogen Activated Kinase 1) (Homo sapiens (Human), UniProt P28482)
- Sequence (P28482 8-360): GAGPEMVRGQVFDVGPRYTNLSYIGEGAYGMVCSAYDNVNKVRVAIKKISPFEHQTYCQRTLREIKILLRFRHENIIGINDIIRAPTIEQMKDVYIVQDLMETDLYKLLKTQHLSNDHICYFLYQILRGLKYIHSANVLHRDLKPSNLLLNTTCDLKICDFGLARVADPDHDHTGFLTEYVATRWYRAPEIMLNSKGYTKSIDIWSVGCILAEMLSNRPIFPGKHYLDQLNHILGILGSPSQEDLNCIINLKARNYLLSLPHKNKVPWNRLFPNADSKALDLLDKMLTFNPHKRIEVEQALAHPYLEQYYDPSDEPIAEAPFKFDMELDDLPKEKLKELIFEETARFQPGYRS
- experiment: ERK-2 Enzymatic Assay
- measurementSetup: 5 nM ERK-2, 25 μM ATP, Omnia peptide S/T17; read-out: ERK Inhibition IC50
experimentalReadout: IC50 (nM)

Example compounds with recorded IC50:
{"columns": ["compound", "IC50 / nM"],
 "data": [
  ["CC(C)Nc1ncc2c(n1)CN(C(=O)N[C@@H](c1ccc(C(F)(F)F)c(F)c1)[C@H]1CCCN1)CC2", 1.1],
  ["C[C@@H](CO)Nc1ncc2c(n1)CN(C(=O)N[C@H](C)c1ccc(Cl)c(F)c1)CC2", 1.6],
  ["O=C(N[C@@H](c1ccc(Cl)c(F)c1)[C@@H]1CNCCO1)N1CCc2cnc(NC3CCOCC3)nc2C1 (mixture of isomers)", 2.3],
  ["CCCC(NC(=O)N1CCc2cnc(N[C@@H](C)CO)nc2C1)c1ccc(OC)c(F)c1 (stereo partly drawn)", 2.3],
  ["Cc1cccc(CCNc2ncc3c(n2)CN(C(=O)N[C@H](CO)c2ccc(F)c(Cl)c2)CC3)n1", 61],
  ["Cn1ccc(C(NC(=O)N2CCc3cnc(NC4CCOCC4)nc3C2)c2ccc(Cl)c(F)c2)n1 (stereo not drawn)", 3.8],
  ["CC(C)Nc1ncc2c(n1)CN(C(=O)N[C@H](CCN)c1ccc(C(F)(F)F)cc1)CC2", 1.8]
]}

[I] C[C@@H](CO)Nc1ncc2c(n1)CN(C(=O)NCc1cnc(C(F)(F)F)nc1)CC2
[II] O=C(NC1(c2ccc(Cl)cc2)CCNC1)N1CCc2cnc(Nc3ccc(F)cc3)nc2C1 (stereo not drawn)
I would appreciate it if you could say which entry, I or II , has the lower IC50 value. Refer to your chosen item by its label in the answer.
II
